The origin of these recorded values is patent US20210032312A1.

biological target: T1, cynomolgus monkey CD8 alpha on primary cynomolgus CD8+ T cells (cynomolgus monkey, UniProt P01732 23-235 (human entry)); test: flow cytometry, cyno CD8+ T cells
T1 construct: also called Cyno CD8alpha; cyno CD8A
T1 sequence (P01732 other isoform, or with tags, fused parts or gaps limits assumed): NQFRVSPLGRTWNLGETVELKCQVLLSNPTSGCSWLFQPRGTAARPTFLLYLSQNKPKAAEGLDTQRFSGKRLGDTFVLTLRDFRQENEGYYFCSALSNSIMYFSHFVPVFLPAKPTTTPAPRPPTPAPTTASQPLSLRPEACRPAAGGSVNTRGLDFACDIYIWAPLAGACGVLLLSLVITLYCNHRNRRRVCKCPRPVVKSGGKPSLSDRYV
REPORTED METRIC: Cyno T-cell Binding 2 uM (MFI)
Just the number please, in MFI, no unit attached.

[[record]]
binder = "P283FR9P1366_H8 (designed binder, FN3 domain) LPAPKNLVVSRVTEDSARLSWTAPDAAFDSFYISYPEWPGSGEAIVLTVPGSERSYDLTGLKPGTEYAVFIWCVKGGWLSDPLSAIFTT"
reported_metric = "Cyno T-cell Binding 2 uM (MFI)"
unit_string = "MFI"
assay_result = 61300

[[record]]
binder = "P283GR7P1367_B4 (designed binder, FN3 domain) LPAPKNLVVSRVTEDSARLSWTAPDAAFDSFSILYYELPPSGEAIVLTVPGSERSYDLTGLKPGTEYTVSIFGVKGGDNSFPLSAIFTT"
reported_metric = "Cyno T-cell Binding 2 uM (MFI)"
unit_string = "MFI"
assay_result = 396

[[record]]
binder = "P283HR7P1368_B12 (designed binder, FN3 domain) LPAPKNLVVSRVTEDSARLSWTAPDAAFDSFGIGYVEFTRAGEAISLSVPGSERSYDLTGLKPGTEYHVVIIGVKGGEPSHPLGAPFTT"
reported_metric = "Cyno T-cell Binding 2 uM (MFI)"
unit_string = "MFI"
assay_result = 18600

[[record]]
binder = "P283HR7P1368_G10 (designed binder, FN3 domain) LPAPKNLVVSRVTEDSARLSWTAPDAAFDSFGIAYVEWWHRGEAISLPVPGSERSYDLTGLKPGTEYWVTILGVKGGIISTPLGASFTT"
reported_metric = "Cyno T-cell Binding 2 uM (MFI)"
unit_string = "MFI"
assay_result = 23800

[[record]]
binder = "P283DR9P1364_A4 (designed binder, FN3 domain) LPAPKNLVVSRVTEDSARLSWTAPDAAFDSFYIAYPEWPVQGEAIVLTVPGSERSYDLTGLKPGTEYFVIIYGVKGGDWSEPLSAIFTT"
reported_metric = "Cyno T-cell Binding 2 uM (MFI)"
unit_string = "MFI"
assay_result = 48300

[[record]]
binder = "P283DR9P1364_E7 (designed binder, FN3 domain) LPAPKNLVVSRVTEDSARLSWTAPDAAFDSFNIAYPEWPVRGEAIVLTVPGSERSYDLTGLKPGTEYWVIIYGVKGGDRSNPLSAIFTT"
reported_metric = "Cyno T-cell Binding 2 uM (MFI)"
unit_string = "MFI"
assay_result = 28700


Per the record, P283DR9P1364_G10 (designed binder, FN3 domain) LPAPKNLVVSRVTEDSARLSWTAPDAAFDSFSIAYPEWPGSGEAIVLTVPGSERSYDLTGLKPGTEYFVVIFGVKGGSQSWPLSAIFTT has Cyno T-cell Binding 2 uM (MFI) of 10900

The recorded Cyno T-cell Binding 2 uM (MFI) for P283DR9P1364_E8 (designed binder, FN3 domain) LPAPKNLVVSRVTEDSARLSWTAPDAAFDSFSIAYPEWPVHGEAIVLTVPGSERSYDLTGLKPGTEYFVIIYGVKGGVLSEPLSAIFTT is 59300

# binder P283FR9P1366_A1 (designed binder, FN3 domain) LPAPKNLVVSRVTEDSARLSWTAPDAAFDSFWITYPEWPVPGEAIVLTVPGSERSYDLTGLKPGTEYAVFIWGVKGGDASEPLSAIFTT ; its Cyno T-cell Binding 2 uM (MFI) = 39400
